Entry source: paper PMC4336329

Each entry below carries its reported hERG current change (%, negative = inhibition) at 10uM.
Target: human ether-à-go-go-related gene (hERG) potassium channel (human, UniProt Q12809);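 also: peak tail current of the secondary pulse compared with the same well before compound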
Sequence (Q12809 whole entry, looked up): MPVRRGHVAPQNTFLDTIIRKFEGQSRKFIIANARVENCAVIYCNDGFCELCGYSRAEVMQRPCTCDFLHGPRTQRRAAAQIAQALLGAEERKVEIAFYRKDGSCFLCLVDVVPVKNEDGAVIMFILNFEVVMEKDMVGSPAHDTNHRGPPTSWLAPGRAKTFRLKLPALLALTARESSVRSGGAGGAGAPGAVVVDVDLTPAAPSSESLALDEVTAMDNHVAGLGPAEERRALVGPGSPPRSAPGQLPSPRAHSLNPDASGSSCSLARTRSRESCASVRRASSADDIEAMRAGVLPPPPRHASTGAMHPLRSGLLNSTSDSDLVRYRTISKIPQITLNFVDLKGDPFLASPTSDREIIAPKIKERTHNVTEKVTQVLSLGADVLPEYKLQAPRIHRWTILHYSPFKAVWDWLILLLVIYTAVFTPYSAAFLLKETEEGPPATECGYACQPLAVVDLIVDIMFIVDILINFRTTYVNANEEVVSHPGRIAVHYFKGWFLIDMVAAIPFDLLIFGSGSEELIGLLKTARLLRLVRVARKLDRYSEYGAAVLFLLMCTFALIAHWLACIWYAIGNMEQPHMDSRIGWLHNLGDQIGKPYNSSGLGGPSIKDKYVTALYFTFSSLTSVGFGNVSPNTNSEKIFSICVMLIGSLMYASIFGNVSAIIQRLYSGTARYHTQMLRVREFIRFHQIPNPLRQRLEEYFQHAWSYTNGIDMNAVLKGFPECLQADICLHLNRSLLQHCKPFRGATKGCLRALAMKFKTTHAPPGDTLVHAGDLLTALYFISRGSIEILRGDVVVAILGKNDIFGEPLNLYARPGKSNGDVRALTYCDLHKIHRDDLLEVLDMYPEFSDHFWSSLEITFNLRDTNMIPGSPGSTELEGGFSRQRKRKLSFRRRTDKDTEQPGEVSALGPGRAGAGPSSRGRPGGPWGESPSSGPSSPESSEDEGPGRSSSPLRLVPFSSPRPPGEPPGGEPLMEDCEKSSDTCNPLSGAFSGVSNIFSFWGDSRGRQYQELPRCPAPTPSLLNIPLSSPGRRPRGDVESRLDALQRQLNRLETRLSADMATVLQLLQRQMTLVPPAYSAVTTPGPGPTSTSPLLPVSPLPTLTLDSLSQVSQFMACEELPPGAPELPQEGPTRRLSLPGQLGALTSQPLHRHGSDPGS
Experiment: primary screen, population patch clamp on CHO cells stably expressing hERG; higher = less effect of the substance
Screen size: about 310,000 compounds; about 14,000 (4.5%) showed an effect of 50% or more. The effect is printed as a negative number. Shown is part of a subset that was picked to be rich in strong results.
READOUT LABEL: hERG current change (%, negative = inhibition) at 10uM (%)

INSERT INTO measurements (molecule, endpoint_unit, readout_value) VALUES
  ('COc1ccc(C2N(C(=O)c3ccccc3)CCN2C(=O)c2ccc(C)cc2)cc1 (stereo not drawn)', '%', -24.9),
  ('COc1ccc(N2C(=O)CSC2c2ccc([N+](=O)[O-])cc2)cc1 (stereo not drawn)', '%', -37.3),
  ('CCN1CCN(C(c2cccs2)C(C)NC(=S)Nc2cc(C)ccc2C)CC1 (stereo not drawn)', '%', -68.5),
  ('N#Cc1ccccc1CSCCNC(=O)Cc1c(F)cccc1Cl', '%', 15.8),
  ('CC1(C)CC2CC(C)(CN2C(=O)c2ccc([N+](=O)[O-])cc2)C1 (stereo not drawn)', '%', -62.4),
  ('O=C1NC(=O)/C(=C\c2ccc(Sc3ccc(Cl)cc3)o2)N1', '%', 2.37),
  ('Cc1ccc(C)c(NC(=S)NC(C)C(c2ccccc2)N2CCN(C)CC2)c1 (stereo not drawn)', '%', -48),
  ('COc1ccc(C2SCCN2C(=O)c2ccc([N+](=O)[O-])cc2)cc1 (stereo not drawn)', '%', -70),
  ('CCN1CCN(C(c2cccs2)C(C)NC(=O)C(C)C)CC1 (stereo not drawn)', '%', 9.03),
  ('COC(=O)c1cc(S(=O)(=O)N2CCC(C)CC2)ccc1F', '%', -18),
  ('N=C1/C(=C\c2coc3ccccc3c2=O)C(=O)N=C2SC=CN12', '%', 15.3),
  ('COc1ccc(CCNC(=O)CCN2C(=O)[C@@H]3Cc4ccccc4CN3C2=O)cc1', '%', -28.3),
  ('Cc1cccc(NC(=S)NC(C)C(c2cccs2)N2CCN(C)CC2)c1C (stereo not drawn)', '%', -60.5),
  ('CC1(C)C[C@@H]2C[C@@](C)(CN2C(=O)c2ccccc2)C1', '%', 11.3),
  ('Cc1cc(C)cc(OCC(=O)OCC(=O)NCc2ccco2)c1', '%', 4.8),
  ('CCN1CCN(C(c2cccs2)C(C)NC(=S)Nc2cccc(C)c2C)CC1 (stereo not drawn)', '%', -72.9),
  ('Cc1ccccc1NC(=S)NC(C)C(c1cccs1)N1CCOCC1 (stereo not drawn)', '%', 2.05),
  ('COc1cc(C(=O)NCCc2cn3ccc(C)cc3n2)cc(OC)c1OC', '%', -27),
  ('COc1ccc(-c2nc3n(c(=O)c2C#N)CCCS3)cc1', '%', -4.57),
  ('COc1cccc(CN2CC(C(=O)NCCc3ccc(C)s3)CCC2=O)c1 (stereo not drawn)', '%', -26.5),
  ('O=C(COC(=O)c1ccccc1Br)Nc1ccccc1F', '%', -21);

* * *

Documented hERG current change (%, negative = inhibition) at 10uM across a set of molecules
Biological target: human ether-à-go-go-related gene (hERG) potassium channel (human);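 also: peak tail current of the secondary pulse compared with the same well before compound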
Test: primary screen, population patch clamp on CHO cells stably expressing hERG; higher = less effect of the substance
In all, about 310,000 compounds went through this assay and about 14,000 (4.5%) showed an effect of 50% or more. The effect is printed as a negative number. This is one part of a sample in which strong results are shown more often than they occur.
READOUT LABEL: hERG current change (%, negative = inhibition) at 10uM (%)

INSERT INTO assay_data (molecule, readout_value) VALUES
  ('COc1cccc2c1[C@@H]1CN(CCCCn3c(=O)[nH]c4c(sc5ncc(-c6ccccc6)nc54)c3=O)C[C@@H]1CO2.Cl', -67.6),
  ('CCN1CCN(CC(=O)NC2CCCCC2)C(=O)C1=O', 1.65),
  ('O=C1C=C(c2cccc(CO)c2)C[C@@H](c2ccc(Cl)cc2)C1', -54.5),
  ('O=C1C=C(c2cccc(CO)c2)C[C@@H](c2ccc(F)cc2)C1', -45.3),
  ('O=[N+]([O-])c1ccc(Oc2ccc(/C=N/O)cc2)nc1', 0.3),
  ('CCN1C(=O)c2ccccc2S(=O)(=O)c2ccc(C(=O)NCC(OC)OC)cc21', 6.16),
  ('COc1ccc(CCNC(=O)COc2ccc(N(C)S(=O)(=O)c3ccc(C)cc3)cc2)cc1', 6.95),
  ('COc1cc2[nH]c(=O)n(CCCC(=O)N3CC=C(c4ccccc4)CC3)c(=O)c2cc1OC', -12.9),
  ('COc1cc2[nH]c(=O)n(CCCCCC(=O)N3CC=C(c4ccccc4)CC3)c(=O)c2cc1OC', -20),
  ('O=C(CN1CCOCC1)Nc1ccc(N2CCN(c3ccccc3)CC2)c(F)c1', 2.59),
  ('COc1ccc([C@H]2CC(=O)C=C(c3ccc(CO)cc3)C2)cc1', -4.98),
  ('COCc1cccc(C2=CC(=O)C[C@H](c3ccc(OC)cc3)C2)c1', -20.7),
  ('COc1ccc([C@H]2CC(=O)C=C(c3cccc(CO)c3)C2)cc1', -59.3),
  ('CC(C)c1ccc(OCC(=O)Nc2ccccc2C(=O)N2CCOCC2)cc1', -18.9),
  ('COC(=O)c1ccncc1C(=O)Nc1ccc(Oc2ncc(C(F)(F)F)cc2Cl)cc1', -5.09),
  ('COc1ccc([C@H]2CC(=O)C=C(c3cccc(CO)c3)C2)cc1OC', -63.6),
  ('N#CCC(=O)N/N=C/c1ccccc1Cl', 6.55),
  ('Cc1ccc(S(=O)(=O)N(C)c2ccc(C(=O)NCCc3ccccc3)cc2)cc1', -6.94),
  ('CCC(=O)c1ccc(OCC(=O)NCC2COc3ccccc3O2)cc1 (centres unmarked)', -25.5),
  ('Cc1ccc(S(=O)(=O)N(C)c2ccc(OCC(=O)NCc3ccco3)cc2)cc1', -44.8);
